assay: survival rescue of mitochondrial mutant cells in low glucose, primary screen, MELAS cybrids, Rieske KO mouse fibroblasts, CellTiter-Glo (AID 1508586); settings: Rieske KO mouse fibroblast survival, CellTiter-Glo 72 h;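 note: z relative to plate mean and SD of compound and empty wells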
parameter measured: z-score
Numbers only.

1) COc1ccc(CCN)cc1OC ... 0.0302
2) C[C@]12CCC(=O)C=C1CC[C@@H]1[C@@H]2C(=O)C[C@]2(C)C(=O)CC[C@@H]12 ... -0.446
3) NC(=O)CN1CC(O)CC1=O (configuration not stated) ... -0.154

List the reported z-score of each molecule below.
1. NC(CC(=O)N1CCn2c(nnc2C(F)(F)F)C1)Cc1cc(F)c(F)cc1F (configuration not stated)
2. CN1CCN(c2nc3ccccc3nc2Cl)CC1

Output line:
[0.499, -0.11]

List the reported z-score of each molecule below.
1. O=C1NCN(c2ccccc2)C12CCN(CC1COc3ccccc3O1)CC2 (configuration not stated)
2. CC1=C(C(=O)Nc2ccccc2)SCCO1
3. CC1CNCCc2ccc(Cl)cc21 (configuration not stated)
4. C[C@H](N)[C@H](O)c1ccc(O)c(O)c1

Output line:
[1.51, -0.224, -0.176, -1.14]

List the reported z-score of each molecule below.
1. C[C@](O)(COc1ccc(C#N)cc1)C(=O)Nc1ccc(C#N)c(C(F)(F)F)c1
2. C[C@]12CC[C@H](O)C[C@@H]1CC[C@@H]1[C@@H]2CC[C@]2(C)C(=O)CC[C@@H]12
3. CC(C)NCC(O)c1ccccc1Cl (configuration not stated)

Output line:
0.535
0.304
-0.204

###

experiment: sensitizers of A549 cells to miR-34 induction, primary screen, imaging, A549 dox-inducible miR-34, nuclei and caspase counts (AID 1347080); conditions: A549 miR-34 inducible, Hoechst nuclei count, 48 h; measured here: total cells with miR-34 induction; stronger effect = lower value
Assignment: determine reported cell count for the given compounds.
Give bare numbers.

1. O=C1CC[C@@]2(O)C3Cc4ccc(O)c5c4[C@@]2(CCN3CC2CC2)C1O5 (stereo partly specified) ... 8340
2. CN1C(CC(O)c2ccccc2)CCCC1CC(O)c1ccccc1 (stereo unspecified) ... 8680
3. CN1[C@@H]2CC[C@H]1CC(OC1c3ccccc3CCc3ccccc31)C2 (stereo partly specified) ... 8290

List the reported cell count of each compound below.
1. CC(C)[C@H]1CN[C@H](C(=O)O)[C@H]1CC(=O)O
2. Cc1[nH]c2ccc(Cl)cc2c1C1=CCNCC1
3. CN(C)c1ccc(/C=C2\CCCN=C2c2cccnc2)cc1

Output line:
[9550, 7850, 8030]

List the reported cell count of each compound below.
1. C=C1C/C(=C/C)C(=O)O[C@@H]2CCN3CC=C(COC(=O)[C@]1(C)O)[C@H]23
2. C=CCN1CC[C@]23c4c5ccc(O)c4O[C@H]2C(=O)CC[C@@]3(O)C1C5
3. O=C(NCCN1CCC2(CC1)C(=O)NCN2c1ccccc1)c1ccc2ccccc2c1
4. O=C(O)c1ccc2[nH]cc(CCCCN3CC=C(c4ccccc4)CC3)c2c1
5. N#CC(=Cc1ccc(O)c(O)c1)C(N)=S

Output line:
9540
7860
5740
8600
9410

###

assay: differential killing of epithelial or mesenchymal cells, primary screen, imaging, PC-3E GFP, TEM4-18 mCherry, co-culture (AID 1345086); details: imaging cell counts, measured here: mesenchymal TEM4-18 mCherry cell survival, at 1 µM;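 note: cells exposed to compound for 72 h before imaging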
Flag rule - normalised cell number less than 1 flags true; the remaining entries get false.

# count of solved cases: 4
1) C#C[C@@H]1CC2C3CCC4=C[C@@H](OC(C)=O)CCC4C3CC[C@]2(C)[C@H]1OC(C)=O (stereo not given in full) ... false
2) CC(=O)O[C@H]1C[C@@H](OC(C)=O)C(C)(C)C2C[C@@H](OC(C)=O)[C@]3(C)C(CC[C@@]4(C)[C@H](c5ccoc5)C(=O)[C@H]5O[C@]543)[C@]21C (stereo not given in full) ... false
3) CN(CCC(N)CC(=O)N[C@H]1C=CC(n2ccc(N)nc2=O)O[C@@H]1C(=O)O)C(=N)N (stereo not given in full) ... true
4) CC(C)[N+](C)(CCC(C(N)=O)(c1ccccc1)c1ccccc1)C(C)C ... false

Input line: Given the entry CO[C@H]1[C@H](O)[C@@H](O[C@H]2CC[C@]3(C=O)C4CC[C@]5(C)[C@@H](C6=CC(=O)OC6)CC[C@]5(O)C4CC[C@@H]3C2)O[C@@H](C)[C@@H]1O (stereo not given in full) , would its reported normalised cell number be below 1?
Output line: true

Input line: // repeat for `CN(C)Cc1c[nH]c2ccccc12` and report
Output line: true

Input line: // repeat for `C=C[C@H]1CN2CC[C@H]1C[C@@H]2[C@@H](OC(=O)OCC)c1ccnc2ccc(OC)cc12` and report
Output line: true
